# assayedTarget: T1, TSHR coated onto tubes (human, UniProt P16473 21-764, limits assumed)
# T1 construct: whole entry named; also called TSHR coated tubes; thyrotropin receptor
# procedureDetails: TSHR coated tubes, competitor 125I-M22 IgG
readoutName: % inhib of 125I-M22 IgG binding at 10 µg/mL (%)
Number only, in %; omit the unit.

binder: 9D33 IgG (antibody, V domains shown) VH: DVQIQQPGTELVKPGASVRLSCKASGYTFTTYWMHWVKQRPGQGLEWIGEIDPSDSYTNYNQKFKGKATLTVDKSSSTAYMHLSSLTSEDSAVYYCSRNYGSGYYFDYWGQGTTLTVSS VL: GVEMTQSPAIMSASPGEKVTMTCSASSSVSYMHWYQQKSGTSPKRWIYDTSKLASGVPARFSGSGSGTSYSLTISSMETEDAATYYCQQWSSNPWTFGGGTKLEIK
observedValue: 60
--
binder: 17D2 IgG (antibody, V domains shown) VH: DVQIQQSGPELVKPGASVKMSCKASGYSFTAYNMHWVKQTHGKSLEWIGYIDPYSGATSYHQKFKGKATLTVDKSSSTAYMRLNSLTSEDSAVYYCARRWDWDPYAMDYWGQGTSVTVSS VL: SVEMSQSPAILSVSPGERISFSCRASQSIGTSIHWYQQRTNGSPRLLIKYASASISGIPSRFSGSGSGTDFTLSINSVESEDIADYYCQQSNSWPLTFGAGTKLELKR
observedValue: 39

Input: Determine its reported % inhib of 125I-M22 IgG binding at 10 µg/mL: 16E5 IgG (antibody, V domains shown) VH: DVQLVQSGPELVKPGASVKMSCKASGYSFTGYNMHWVKQSHGKSLEWIGYIDPYNGATSYNQKFEDKATLTVDKSSSTAYMQLNSLTSEDSAVYYCARRWDWDPYAMDYWGQGTSVTVSS VL: DILLTQSPAILSVSPGERVSFSCRASQSIGTSIHWYQQRTNGSPRLLIKYASESISGIFSRFSGSGSGTDFTLTINSVESEDIADYYCQQSNRWPLTFGAGTKLELKR
Output: 51

Input: Determine its reported % inhib of 125I-M22 IgG binding at 10 µg/mL: 2B4 IgG (antibody, V domains shown) VH: DVQLQQSGTVLARPGASVRMSCKASGYSFTRYWIHWLKQRPGQGLEWIGAIFPGNRDTSYNQRFKGKAEVTAVTSASTAYLDLSSLTNEDSAVYYCTRWPYYGSIYVNFDYWGQGTTLTVSS VL: DIVMTQSPLSLPVSLGDQASISCRTSQNLVHRNGNTYLHWYLQKPGQSPKLLIYKISNRFSGVPDRFSGSGSGTDFTLKISRVEAEDLGVYFCSQGTHVPPTFGGGTKLEIKR
Output: 19

// data source = patent US8840891
